All figures here come from patent US20250101098A1.

SYSTEM: T1, human nectin-4 protein expressed on the surface of cells (human, UniProt Q96NY8 32-510)
T1 sequence: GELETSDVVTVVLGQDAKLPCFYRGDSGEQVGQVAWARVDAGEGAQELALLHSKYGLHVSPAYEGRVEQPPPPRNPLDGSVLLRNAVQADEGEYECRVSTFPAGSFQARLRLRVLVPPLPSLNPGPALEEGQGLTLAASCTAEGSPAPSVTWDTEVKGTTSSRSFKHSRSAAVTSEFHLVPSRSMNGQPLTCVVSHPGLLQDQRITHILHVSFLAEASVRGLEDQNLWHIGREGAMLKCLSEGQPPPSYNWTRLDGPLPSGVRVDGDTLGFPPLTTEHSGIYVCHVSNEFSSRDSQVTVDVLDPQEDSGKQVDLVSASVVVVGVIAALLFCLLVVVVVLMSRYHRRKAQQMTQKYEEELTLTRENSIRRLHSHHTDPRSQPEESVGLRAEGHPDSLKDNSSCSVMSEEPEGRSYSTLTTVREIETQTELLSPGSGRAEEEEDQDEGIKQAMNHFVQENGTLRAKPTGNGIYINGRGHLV
ASSAY_NOTES: cell-based or functional assay
// Cell kill IC50, MDA-MB468 lookup, one value per entry
Your answer is read as nM, so omit the unit and give the number.

Worked examples, 4 binders total:
BINDER	REPORTED_METRIC	REPORTED_MEASUREMENT
Nectin-4 5D9 VH4/VL5 (antibody, V domains shown, Humanized; also called 5D9 VH variant 4 / 5D9 VL variant 5; Nectin-4 VH4/VL5) VH: QVQLQQSGPGLVKPSETLSLTCTVSGFSLTNYGVHWVRQPPGKGLEWLGVIWSGGSTDYNPSLKSRLTISRDTSKNQVSFKMSSVTAADTAVYYCARSGKWYYFDYWGQGTLVTVSS VL: DIQMTQSPSSLSASVGDRVTITCRASQSIYSNLAWYQQKPGKAPKLLVYAATNLQSGVPSRFSGSGSGTDFTLTISSLQPEDFATYYCQHFWGTPTFGGGTKVEIK	Cell kill IC50, MDA-MB468	3.93
Nectin-4 5D9 VH5/VL1 (antibody, V domains shown, Humanized; also called 5D9 VH variant 5 / 5D9 VL variant 1) VH: QVQLQESGPGLVKPSETLSLTCTVSGGSLTNYGVHWVRQPPGKGLEWIGVIWSGGSTNYNPSLKSRVTISRDTSKNQVSLKLSSVTAADTAVYYCARSGKWYYFDYWGQGTLVTVSS VL: DIQMTQSPASLSASVGDTVTITCRASQNIYSNLAWYQQKQGKSPQLLVYAATNLADGVPSRFSGSGSGTQYTLKINSLQSEDFGTYYCQHFWGTPTFGGGTKVEIK	Cell kill IC50, MDA-MB468	19
Nectin-4 5D9 VH2/VL2 (antibody, V domains shown, Humanized; also called 5D9 VH variant 2 / 5D9 VL variant 2) VH: QVQLQESGPGLVKPSETLSLTCTVSGFSITNYGVHWIRQPPGKGLEWLGVIWSGGSTDYNASLVSRVTISRDTSKSQFFLKLNSVQADDTAVYYCARSGKWYYFDYWGQGTTVTVSS VL: DIQMTQSPSSLSASVGDTVTITCRASQNIYSNLAWYQQKQGKAPKLLVYAATNLADGVPSRFSGSGSGTDFTLKINSLQPEDFATYYCQHFWGTPTFGGGTKVEIK	Cell kill IC50, MDA-MB468	19.3
Nectin-4 5D9 VH5/VL4 (antibody, V domains shown, Humanized; also called 5D9 VH variant 5 / 5D9 VL variant 4) VH: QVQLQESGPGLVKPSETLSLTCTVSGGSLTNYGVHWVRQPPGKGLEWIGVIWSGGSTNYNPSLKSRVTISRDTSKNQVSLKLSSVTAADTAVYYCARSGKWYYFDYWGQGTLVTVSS VL: DIQMTQSPSSLSASVGDRVTITCRASENIYSNLAWYQQKPGKAPKLLVYAATNLADGVPSRFSGSGSGTDYTLTISSLQPEDFATYYCQHFWGTPTFGGGTKVEIK	Cell kill IC50, MDA-MB468	11

**Q:** Recorded Cell kill IC50, MDA-MB468 for Nectin-4 5D9 VH3/VL1 (antibody, V domains shown, Humanized; also called 5D9 VH variant 3 / 5D9 VL variant 1) VH: QVQLQESGPGLVKPSETLSLTCTVSGGSITNYGVHWIRQPPGKGLEWLGVIWSGGSTDYNPSLKSRVTISVDTSKNQFSLKLSSVTAADTAVYYCARSGKWYYFDYWGQGTLVTVSS VL: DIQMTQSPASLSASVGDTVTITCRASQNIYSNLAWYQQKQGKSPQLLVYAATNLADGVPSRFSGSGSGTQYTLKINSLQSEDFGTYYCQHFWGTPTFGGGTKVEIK , please?
**A:** 41.6
